Could you please report measured BA (100 ppm) rating for the items listed next?
test system: Aphis fabae, mixed instar, bean aphid (BA); assay: Bean aphid (BA) spray test on nasturtium; format: in vivo; design: key: 0 = no effect; 1 = 10-25% kill; 2 = 26-35% kill; 3 = 36-45% kill; 4 = 46-55% kill; 5 = 56-65% kill; 6 = 66-75% kill; 7 = 76-85% kill; 8 = 86-99% kill; 9 = 100% kill; settings: spray on infested nasturtium plants, 2 days, kill rating 0-9

stdin: # assay system Aphis fabae, mixed instar, bean aphid (BA): give BA (100 ppm) rating of COCCC(/C(F)=C(\F)Cc1ccc(F)c(Oc2ccccc2)c1)c1ccc(Cl)cc1 (stereo not shown) [Compound 4]
stdout: 0

stdin: # assay system Aphis fabae, mixed instar, bean aphid (BA): give BA (100 ppm) rating of COCCC(/C(F)=C(\F)Cc1cccc(Oc2ccccc2)c1)c1ccc(Cl)cc1 (stereo not shown) [Compound 1]
stdout: 2 (2 = 26-35% kill)

stdin: # assay system Aphis fabae, mixed instar, bean aphid (BA): give BA (100 ppm) rating of C=CC(/C(F)=C(\F)Cc1cccc(Oc2ccccc2)c1)c1ccc(Cl)cc1 (stereo not shown) [Compound 3]
stdout: 9 (9 = 100% kill)

stdin: # assay system Aphis fabae, mixed instar, bean aphid (BA): give BA (100 ppm) rating of C=CCC(/C(F)=C(\F)Cc1cccc(Oc2ccccc2)c1)c1ccc(Cl)cc1 (stereo not shown) [Compound 2]
stdout: 9 (9 = 100% kill)
